# System: BLK;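 further: KINOMEscan kinase panel screen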
# CONDITIONS USED: concentration: 1 μM, replicates: in singlicate; n = 1
%Inh values by entry
READOUT TYPE: %Inh (%)

| COMPOUND | READOUT TYPE | OBSERVED RESULT |
| --- | --- | --- |
| Nc1ncnc2[nH]c(-c3ccccc3)nc12 | %Inh | 10 |
| Cl.Oc1ccc(-c2nc(-c3ccccc3)[nH]c2-c2ccncc2)cc1 | %Inh | 58 |
| CC(C)(C)c1ccc(C(=O)Nc2cn3cc(Cl)ccc3n2)cc1 | %Inh | 0 |
| COc1ccc2nc(-c3cccc(C)n3)nc(Nc3ccncc3)c2c1 | %Inh | 31 |
| Cc1c(Cn2ccn3c(=O)cc(N4CCOCC4)nc23)cccc1C(F)(F)F | %Inh | 0 |
| Fc1cccc(COc2nnc(-c3ccc4c(c3)CCO4)o2)c1 | %Inh | 0 |
| Cc1cccc(-c2nc(-c3ccc(S(C)(=O)=O)cc3)sc2-c2ccnc(NCCc3ccccc3)c2)c1 | %Inh | 16 |
| COc1ccc(CNC(=O)NC2CCN(c3ccnc(Nc4cc(OC)c(OC)c(OC)c4)n3)C2)cc1 (stereo not shown) | %Inh | 0 |
| O=C(Nc1n[nH]c2nc(-c3nccs3)c(Br)cc12)C1CC1 | %Inh | 0 |
| O=S(=O)(c1ccc(-c2ccnc3[nH]ccc23)cc1)N1CCCC1 | %Inh | 0 |
| CS(=O)(=O)c1ccc(-c2c(-c3ncn[nH]3)sc(N3CCOCC3)c2C#N)cc1 | %Inh | 8 |
| Cc1ccc(-c2cc(-c3c[nH]nc3-c3ccccn3)ccn2)cc1 | %Inh | 0 |
| COC(=O)c1c(-c2ccccc2)c2cc(OC)ccc2c(=O)n1Cc1ccccc1 | %Inh | 0 |
| O=C1NC(=O)C(N2CCc3ccccc32)=C1c1ccccc1Cl | %Inh | 7 |
| CN1C(=O)C(Nc2ccc(Cl)c(C(=O)O)c2)=C(c2ccc(Cl)cc2)C1=O | %Inh | 0 |
| Cl.O=C(Nc1cccc(-c2nn3ncccc3c2-c2ccnc(Nc3cccnc3)n2)c1)c1c(F)cccc1F | %Inh | 2 |
